- test_details: Inhibition of porcine succinate-cytochrome c reductase using succinate and cytochrome c as substrates by spectrophotometric based assay
- Parameters: species or system Sus scrofa
Each entry below carries its recorded IC50.
observable: IC50

# compound_structure_string, reported
rows = [
    ("O=[N+]([O-])c1ccc(S(=O)(=O)Nc2cc(Cl)c(Oc3c(Cl)cc(Cl)cc3Cl)c(Cl)c2)cc1", "1580 nM"),
    ("O=S(=O)(Nc1ccc(Oc2ccc(Cl)cc2Cl)c(Cl)c1)c1ccc(C(F)(F)F)cc1Cl", "1080 nM"),
    ("Cc1cccc(S(=O)(=O)Nc2cc(Cl)c(Oc3c(Cl)cc(Cl)cc3Cl)c(Cl)c2)c1", "380 nM"),
]
